System: CT26 cell line
protocol_details: MTT antiproliferative assay, CT26 cell line
Type: cell-based, mouse
experimental_conditions: read-out: IC50 against CT26 cells; CT26 cells, MTT
parameter: IC50

>>> df
                                   compound      val
0  COc1ccc(/C=C/C(=O)C(=CC2=CC=C[CH]2[Fe][CH]2C=CC=C2)C(=O)/C=C/c2ccc(OC)c(OC)c2)cc1OC (stereo not shown)  1.42 µM
